Measured values drawn from patent US20220249561A1 for this set.

Target: T1, LTK 001P
T1 construct: Expressed in Expi293 cells and captured on a Protein A chip through its Fc
Experiment: SPR, Biacore 8K; LTK 001P captured on Protein A chip, ligand as analyte, 6 concentrations from 20 nM
Measured Metric: binding result

{"columns": ["Binder", "Measured Metric", "Measured Value"],
 "data": [
  ["Ligand 024P (ligand) DGHHHHHHGSLQDSEVNQEAKPEVKPEVKPETHINLKVSDGSSEIFFKIKKTTPLRRLMEAFAKRQGKEMDSLTFLYDGIEIQADQTPEDLDMEDNDIIEAHREQIGGLEVLFQGPAEAAGLGPSPEQRVEIVPRDLRMKDKFLKHLTGPLYFSPKCSKHFHRLYHNTRDCTIPAYYKRCARLLTRLAVSPVCM", "binding result", "binds"],
  ["Ligand 020P (ligand) DGHHHHHHGSLQDSEVNQEAKPEVKPEVKPETHINLKVSDGSSEIFFKIKKTTPLRRLMEAFAKRQGKEMDSLTFLYDGIEIQADQTPEDLDMEDNDIIEAHREQIGGLEVLFQGPKHLTGPLYFSPKCSKHFHRLYHNTRDCTIPAYYKRCARLLTRLAVSPVCMEDKQ", "binding result", "binds"]
]}
